# System: A549/ATCC NSCLC
# method-description: NCI-60 one-dose screen, 48 h
# reported-conditions: 10 µM unless noted
Compounds without any hit were thinned out: in the full panel of roughly 83,000, 20% have a hit. The source made the active and inactive calls. How the source made its calls: active means growth percent below 10; inactive means the rest.
Response enum: active, inactive

# input What did this assay record as the result for O=C(c1ccc(Cl)cc1)C1[C@H](c2ccccc2Cl)[C@@H](c2ccccc2)NC12C(=O)Nc1ccccc12 (some centres undefined) ?
# output active

# input What did this assay record as the result for COc1cc(/C=C/C(=O)c2cnn(-c3cc(=O)[nH]c4ccc(Br)cc34)c2C)cc(OC)c1OC ?
# output active

# input What did this assay record as the result for COc1ccc(C(=O)C[n+]2cccc3c4ccccc4ccc32)cc1 ?
# output inactive

# input What did this assay record as the result for COc1ccccc1Nc1nnc(-c2c[nH]c3ccccc23)o1 ?
# output inactive

# input What did this assay record as the result for FC(F)(F)CN1CCN(CCn2c(C(F)(F)F)cc3c(Cl)ncnc32)CC1 ?
# output inactive

# input What did this assay record as the result for CNS(=O)(=O)N1CCc2c(Br)c3c(c(OC)c2C1CCc1ccccc1)OCO3 (centres undefined) ?
# output inactive

# input What did this assay record as the result for C#CCN(C)CCCOc1ccc(N(C)C(=O)c2cc(C(C)C)c(O)cc2O)cc1Cl ?
# output inactive

# input What did this assay record as the result for O=C1c2cccc3c(N4CCN(Cc5ccccc5)CC4)ccc(c23)C(=O)N1c1cccc(-c2nn(-c3ccccc3)cc2-c2nc3ccccc3s2)c1 ?
# output inactive

# input What did this assay record as the result for COc1cc(/C=N/NC(=O)c2ccc(OCc3nc4ccc(C)cc4[nH]3)cc2)cc(OC)c1OC ?
# output inactive
